All figures here come from ChEMBL document CHEMBL3232844.

# System: HCT-116
# Assay name: Cytotoxicity against human HCT116 cells
# Type: functional
# Test settings: read-out: pLC50 (the source's name) (converted)
Would you mind telling me the reported CC50 of each entry?

Ask: Using the record for `COc1cc(/C=C/c2cc(OC)c3c(CC=C(C)C)c[nH]c3c2)cc2c1O[C@]1(C)CC[C@@H](O)C(C)(C)[C@H]1C2` , report its CC50.
Reply: 57.5 µM

Ask: Using the record for `COc1cc(/C=C/c2cc(O)c3ccn(C)c3c2)cc2c1O[C@]1(C)CC[C@@H](O)C(C)(C)[C@H]1C2` , report its CC50.
Reply: > 100 µM

Ask: Using the record for `COc1cc(/C=C/c2cc(O)c3cc[nH]c3c2)cc2c1O[C@]1(C)CC[C@@H](O)C(C)(C)[C@H]1C2` , report its CC50.
Reply: 6.03 µM

Ask: Using the record for `COc1cc(/C=C/c2cc(O)c3c(c2)C[C@@H]2C(C)(C)[C@H](O)CC[C@@]2(C)O3)cc2[nH]cc(CC=C(C)C)c12` , report its CC50.
Reply: 64.6 µM

Ask: Using the record for `CC1(C)[C@H](O)CC[C@@]2(C)Oc3c(O)cc(/C=C/c4cc(O)c5cc[nH]c5c4)cc3C[C@H]12` , report its CC50.
Reply: 8.13 µM

---

# System: MDA-MB-468
# Assay name: Cytotoxicity against human MDA-MB-468 cells
# Type: functional
# Test settings: read-out: pTGI (converted)
Assign y to entries whose TGI meets or exceeds 9 µM; assign n to the rest.

Ask: Hello, I need to know if `COc1cc(/C=C/c2cc(O)c3ccn(C)c3c2)cc2c1O[C@]1(C)CC[C@@H](O)C(C)(C)[C@H]1C2` has measured TGI not below 9 µM. Thanks!
Reply: y

Ask: Hello, I need to know if `COc1cc(/C=C/c2cc(OC)c3cc[nH]c3c2)cc2c1O[C@]1(C)CC[C@@H](O)C(C)(C)[C@H]1C2` has measured TGI not below 9 µM. Thanks!
Reply: n

Ask: Hello, I need to know if `COc1cc(/C=C/c2cc(OC)c3c(CC=C(C)C)c[nH]c3c2)cc2c1O[C@]1(C)CC[C@@H](O)C(C)(C)[C@H]1C2` has measured TGI not below 9 µM. Thanks!
Reply: n

Ask: Hello, I need to know if `CC1(C)[C@H](O)CC[C@@]2(C)Oc3c(O)cc(/C=C/c4cc(O)c5cc[nH]c5c4)cc3C[C@H]12` has measured TGI not below 9 µM. Thanks!
Reply: n

Ask: Hello, I need to know if `COc1cc(/C=C/c2cc(O)c3c(C/C=C(\C)CCC=C(C)C)c[nH]c3c2)cc2c1O[C@]1(C)CC[C@@H](O)C(C)(C)[C@H]1C2` has measured TGI not below 9 µM. Thanks!
Reply: y

Ask: Hello, I need to know if `COc1cc(/C=C/c2cc(O)c3c(c2)C[C@@H]2C(C)(C)[C@H](O)CC[C@@]2(C)O3)cc2c1ccn2C` has measured TGI not below 9 µM. Thanks!
Reply: y

Ask: Hello, I need to know if `COc1cc(/C=C/c2cc(O)c3cc(CC=C(C)C)[nH]c3c2)cc2c1O[C@]1(C)CC[C@@H](O)C(C)(C)[C@H]1C2` has measured TGI not below 9 µM. Thanks!
Reply: y

Ask: Hello, I need to know if `COc1cc(/C=C/c2cc(O)c3c(CC=C(C)C)c[nH]c3c2)cc2c1O[C@]1(C)CC[C@@H](O)C(C)(C)[C@H]1C2` has measured TGI not below 9 µM. Thanks!
Reply: y

Ask: Hello, I need to know if `COc1cc(/C=C/c2cc(OC)c3c(C/C=C(\C)CCC=C(C)C)c[nH]c3c2)cc2c1O[C@]1(C)CC[C@@H](O)C(C)(C)[C@H]1C2` has measured TGI not below 9 µM. Thanks!
Reply: n

Ask: Hello, I need to know if `COc1cc(/C=C/c2cc(O)c3cc[nH]c3c2)cc2c1O[C@]1(C)CC[C@@H](O)C(C)(C)[C@H]1C2` has measured TGI not below 9 µM. Thanks!
Reply: n

Ask: Hello, I need to know if `COc1cc(/C=C/c2cc(O)c3c(c2)C[C@@H]2C(C)(C)[C@H](O)CC[C@@]2(C)O3)cc2[nH]cc(CC=C(C)C)c12` has measured TGI not below 9 µM. Thanks!
Reply: n
